Biological target: T1, IL-23R (human, UniProt Q5VWK5 24-629)
T1 sequence (looked up): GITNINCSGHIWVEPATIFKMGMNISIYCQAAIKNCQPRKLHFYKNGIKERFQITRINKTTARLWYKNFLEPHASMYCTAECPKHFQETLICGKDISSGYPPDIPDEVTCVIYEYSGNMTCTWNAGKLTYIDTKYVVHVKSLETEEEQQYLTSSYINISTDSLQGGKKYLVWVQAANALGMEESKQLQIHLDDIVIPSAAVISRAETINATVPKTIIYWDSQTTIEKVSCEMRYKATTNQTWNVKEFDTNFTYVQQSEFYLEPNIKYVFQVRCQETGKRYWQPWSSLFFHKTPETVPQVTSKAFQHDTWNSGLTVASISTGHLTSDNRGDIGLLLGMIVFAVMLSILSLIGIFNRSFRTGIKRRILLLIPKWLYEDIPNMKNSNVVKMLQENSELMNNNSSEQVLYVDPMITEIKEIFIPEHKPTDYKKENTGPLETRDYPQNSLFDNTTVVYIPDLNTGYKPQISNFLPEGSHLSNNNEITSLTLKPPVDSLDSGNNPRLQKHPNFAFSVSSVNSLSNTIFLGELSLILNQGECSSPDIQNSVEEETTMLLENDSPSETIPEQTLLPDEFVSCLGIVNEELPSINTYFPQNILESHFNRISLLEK
Test: cell-based or functional assay
Bridge positions count the residues as written; N and C are the ends. Square brackets hold non-standard residues; d marks the D form. Trp(7-Me) = Cc1cccc2c(C[C@H](N)C(=O)O)c[nH]c12; 2Nal = N[C@@H](Cc1ccc2ccccc2c1)C(=O)O; AEF = NCCOc1ccc(C[C@H](N)C(=O)O)cc1; Cit = NC(=O)NCCC[C@H](N)C(=O)O; Pen = CC(C)(S)[C@H](N)C(=O)O; αMeK = C[C@](N)(CCCCN)C(=O)O; Aib = CC(C)(N)C(=O)O
observationType: pStat3 HTRF (nM) IC50

{"binder": "Ac-[Pen]NT[Trp(7-Me)][Cit][Pen][AEF][2Nal][αMeK]K(Ac)N[Aib]-NH2 (disulfide 1-6 (inferred)) [SEQ ID NO: 264]", "recordedValue": "< 1 nM"}
